B1: HDV Ribozyme (parent)
chain: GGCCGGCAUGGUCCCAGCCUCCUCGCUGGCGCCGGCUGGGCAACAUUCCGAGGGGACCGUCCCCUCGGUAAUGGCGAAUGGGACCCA

Variants of: B1
Test: self-cleavage, relative activity (ratio to wild type); higher = more cleavage; co-transcriptional
MEASURED PROPERTY: self-cleavage
# output: bare number, no unit

get_value(item= G5C C57G , readout=self-cleavage) returns 0.35

The variant identified as C13U C84G registered its self-cleavage at 0.969

Briefly, self-cleavage measured for C4A G73U : 0

What the record says about C26G C33U : self-cleavage is 0.867

What the record says about G25C C66A : self-cleavage is 0.0627

# variant U37C G74C ; its self-cleavage = 0.193

So, G6U U23A ? Its self-cleavage was 0.466

# self-cleavage (variant: G5U C13A ) is 0.217

For reference, reported self-cleavage for G31U G53U stands at 0.322

C32G C57G yielded self-cleavage of 0.225

G50U C62A has a reported self-cleavage of 0.602

For record G25A C49U the listed self-cleavage is 0.318

The variant listed as C3U C7A has a reported self-cleavage of 0.205

Input U46G C84U . Output self-cleavage: 0.287

// self-cleavage value for G1A G76U : 0.185

Reported self-cleavage for G11A A16C was 0.35

response.value for G17C C30G (field: self-cleavage) = 0.684

get_value(item= G53U C63U , readout=self-cleavage) returns 0.895

Sample C15G C44U ; self-cleavage observed: 0.434

Kindly note the recorded self-cleavage for A16U G52U , which is 0.863

Value of self-cleavage reported for the variant A45U G52C is 0.743

Form: variant = G52C ; self-cleavage = 1.01

Record C44U C64A . Reported self-cleavage: 0.408

The variant C3A A8G showed self-cleavage equal to 0.578

Input A8G G34C . Output self-cleavage: 0.0573

Please fill in: self-cleavage reported for U60G U79G = 0.831

So for G50C U69C , the logged self-cleavage turned out to be 1.07

The measured self-cleavage associated with U46A U69C reads 0.779

Entry C44U G50C ; self-cleavage = 0.437

Record A45U A71C , field self-cleavage: 0.653

Field self-cleavage (entry G5U G74U ) reads 0

// self-cleavage lookup, variant = U46G C48A , result: 0.903

// sample G25A C36U , its self-cleavage was 0.153

variant U60G U69A , self-cleavage observed: 0.965

self-cleavage reported for this variant C14U G34U : 0.248

// recorded self-cleavage for G1U G59U : 0.451

The reported self-cleavage of the variant G34A C75G was 0.203

So for U20A C26A , the logged self-cleavage turned out to be 0.0594

// field: self-cleavage; key: G28U A87C ; value = 0.113

// self-cleavage lookup, variant = A16G G34A , result: 0.17

Recorded result, G28A G50C , self-cleavage: 0.0978

Entry G53U G67A ; self-cleavage = 0.855

Note to self: self-cleavage recorded for C15A G39U was 0.177

Notebook: U47C A70U , self-cleavage read as 0.864

Recorded result, A42U A51G , self-cleavage: 0.508
